# Tested on: KG-1 cells
# assay.notes: Long term proliferation assay, Cell Titer-Glo read-out
# Assay type: cell-based
# experimental.context: Homo sapiens, 336 h, Day 14, Cell Titer-Glo, read-out: Day 14 IC50
# Method: Compounds of invention are tested in the 5 suspension lines by 14-day long-term proliferation assay. […] To do this take the total viable cell count calculated using step: • 1. […] To calculate growth for days 4, 7, 11, and 14: • 1. […] The growth inhibition was calculated with the formula ((untreated cell numbers-treated cell numbers)/untreated cell)). • 7. […]
quantity.kind: pIC50
Remember, pIC50 is on a log scale: it is -log10 of the molar concentration.

- molecule: "C=CC(=O)NC1CCCN(Cc2ccnc(C(=O)Nc3ccc(-c4cc5c(N6CCOCC6)ncnc5[nH]4)cc3)c2)C1 (centres unmarked) [Compound 10]"
  reported.measurement: 6.62

Lab note: next molecule to report on.
Request: pIC50, test system KG-1 cells, entry CN(C)C/C=C/C(=O)Nc1ccc(CC(=O)Nc2ccc(-c3cc4c(N5CCOCC5)ncnc4[nH]3)cc2)cc1 [Compound 5]
5.39

---

# Tested on: MOLM-13 cells
# assay.notes: Long term proliferation assay, Cell Titer-Glo read-out
# Type: cell-based, human
# experimental.context: Homo sapiens, MOLM-13, MOLM-13; T11; CellTiter-Glo; read-out: IC50
pIC50 values for the molecules below.
Remember, pIC50 is on a log scale: it is -log10 of the molar concentration.

- molecule: "C=CC(=O)NC1CCCN(Cc2ccnc(C(=O)Nc3ccc(-c4cc5c(N6CCOCC6)ncnc5[nH]4)cc3)c2)C1 (centres unmarked)"
  pIC50: 7.30

Lab note: next molecule to report on.
Fill in: pIC50 of CN(C)C/C=C/C(=O)Nc1ccc(CC(=O)Nc2ccc(-c3cc4c(N5CCOCC5)ncnc4[nH]3)cc2)cc1 is ___
6.46

---

pIC50 values for the compounds below.
# System: MV4-11 cells
# assay.notes: Long term proliferation assay, Cell Titer-Glo read-out
# Format: cell-based, human
# experimental.context: Homo sapiens, MV4-11, 96 h, MV4-11; Day 4; Cell Titer-Glo; read-out: Day 4 IC50
Remember, pIC50 is on a log scale: it is -log10 of the molar concentration.

- compound: "CN(C)C/C=C/C(=O)Nc1ccc(CC(=O)Nc2ccc(-c3cc4c(N5CCOCC5)ncnc4[nH]3)cc2)cc1"
  pIC50: 6.44

Lab note: next compound to report on.
Request: pIC50, test system MV4-11 cells, entry C=CC(=O)NC1CCCN(Cc2ccnc(C(=O)Nc3ccc(-c4cc5c(N6CCOCC6)ncnc5[nH]4)cc3)c2)C1 (centres unmarked)
6.82

---

# Test system: Panc 10.05 cells
# assay.notes: Proliferation assay, cells in adhesion
# Assay type: cell-based
# experimental.context: Homo sapiens, Panc1005, Panc 10.05, T4, read-out: IC50
quantity.kind: pIC50
Remember, pIC50 is on a log scale: it is -log10 of the molar concentration.

Request: pIC50, test system Panc 10.05 cells, entry C=CC(=O)NC1CCCN(Cc2ccnc(C(=O)Nc3ccc(-c4cc5c(N6CCOCC6)ncnc5[nH]4)cc3)c2)C1 (centres unmarked)
6.10

---

# System: MOLM-13 cells
# assay.notes: Long term proliferation assay, InCell read-out
# Format: cell-based, human
# experimental.context: Homo sapiens, MOLM-13, MOLM-13, T11, read-out: IC50
IC50 values for the compounds below.
Please state the figure in nM; there is no need to write the unit.

- compound: "CN(C)C/C=C/C(=O)Nc1ccc(CC(=O)Nc2ccc(-c3cc4c(N5CCOCC5)ncnc4[nH]3)cc2)cc1"
  units.of.measure: "nM"
  IC50: 380

Lab note: next compound to report on.
Fill in: IC50 of C=CC(=O)NC1CCCN(Cc2ccnc(C(=O)Nc3ccc(-c4cc5c(N6CCOCC6)ncnc5[nH]4)cc3)c2)C1 (centres unmarked) is ___
90
